FYI, the data here is from ChEMBL document CHEMBL1137643.

Give measured MIC for each item. Keep answers brief.
test system: Mycobacterium avium complex sp.; assay: Antimycobacterial activity against Mycobacterium avium complex N018 after 14 days by broth microdilution method; assay type: functional; settings: N018, 336 h
One number for each entry, in µg/mL.

Bench note, Mycobacterium avium complex sp.: entry COc1c(N2C[C@@H]3CCCN[C@@H]3C2)c(F)cc2c(=O)c(C(=O)O)cn(C3CC3)c12 [MOXIFLOXACIN] , its MIC = 0.5

Would you mind giving MIC for every compound in the list below?
1. COc1c(N2CCNC(C)C2)c(F)cc2c(=O)c(C(=O)O)cn(C3CC3)c12 (centres undefined) [GATIFLOXACIN]
2. C[C@H]1COc2c(N3CCN(C)CC3)c(F)cc3c(=O)c(C(=O)O)cn1c23.C[C@H]1COc2c(N3CCN(C)CC3)c(F)cc3c(=O)c(C(=O)O)cn1c23.O [LEVOFLOXACIN]
3. CC[C@H]1OC(=O)[C@H](C)[C@@H](O[C@H]2C[C@@](C)(OC)[C@@H](O)[C@H](C)O2)[C@H](C)[C@@H](O[C@@H]2O[C@H](C)C[C@H](N(C)C)[C@H]2O)[C@](C)(OC)C[C@@H](C)C(=O)[C@H](C)[C@@H](O)[C@]1(C)O [CLARITHROMYCIN]

## Output
1: 1; 2: 4; 3: 0.5
